Ref: PubChem BioAssay (NCI)

# Test system: LXFL 529 NSCLC
# protocol: NCI tumour cell line growth inhibition, 48 h
Item-by-item account of TGI

Here are 3 molecules together with their reported answers.
| molecule | property-label | result |
| --- | --- | --- |
| CCOC(=O)Cn1c(=O)n(C)c(=O)c2[nH]cnc21 | TGI | > 100 µM |
| C[Si]1(C)C(c2ccccc2)=CC2C(c3ccccc3)(c3ccccc3)OC21c1ccccc1 (stereo not drawn) | TGI | > 100 µM |
| CC1OC(=O)C2CC3CCCCC3C(/C=C/C3CCCC(C)N3C)C12 (stereo not drawn) | TGI | > 100 µM |

query: Write down TGI measured for item `CC[C@@]1(O)C(=O)OCc2c1cc1n(c2=O)Cc2cc3c([N+](=O)[O-])c(OC)ccc3nc2-1`
result: 8.42 µM

query: Write down TGI measured for item CC12OC3(O)C4C5CC(C6C5C3C61)C42 (stereo not drawn)
result: 53.1 µM

query: Write down TGI measured for item `CN(C(=O)c1cccs1)C(=S)N1CCN(c2ccccn2)CC1`
result: > 100 µM
